Test system: 699152-130-R-J1-PDC complex spheroid growth
experiment-summary: Anticancer human tumor 699152-130-R-J1-PDC patient-derived pancreatic carcinoma cell line growth inhibition [AhR]
experimental-setup: second compound 1 µM; first compound 3.16 µM; stronger effect = lower value
experimental-endpoint: viability, T/C (%)

INSERT INTO measurements (compound, experimental_system, experimental_endpoint, value_reported) VALUES
  ('COc1cc(Nc2ncc3c(n2)-c2ccc(Cl)cc2C(c2c(F)cccc2OC)=NC3)ccc1C(=O)O + Cc1cncc(-c2nc(NCCc3c[nH]c4ccccc34)c3ncn(C(C)C)c3n2)c1', '699152-130-R-J1-PDC complex spheroid growth', 'viability, T/C', 59.7),
  ('NS(=O)(=O)OCC1CC(n2ccc3c(NC4CCc5ccccc54)ncnc32)CC1O (stereo not drawn) + CC(CO)NC(=O)c1cc(-c2ccc(Cl)cc2)nn(-c2cnn(C)c2)c1=O', '699152-130-R-J1-PDC complex spheroid growth', 'viability, T/C', 23.1),
  ('COc1cccc2c1C(=O)c1c(O)c3c(c(O)c1C2=O)CC(O)(C(=O)CO)CC3OC1CC(N)C(O)C(C)O1 (stereo not drawn) + Cc1cncc(-c2nc(NCCc3c[nH]c4ccccc34)c3ncn(C(C)C)c3n2)c1', '699152-130-R-J1-PDC complex spheroid growth', 'viability, T/C', 3.69);

----------
System: 699152-130-R-J1-PDC complex spheroid growth
experiment-summary: Anticancer human tumor 699152-130-R-J1-PDC cell line growth inhibition [AhR];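 also: compound exposure lasted 7 days after spheroids had grown for 3 days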
experimental-setup: second compound 0.316 µM; first compound 0.316 µM; stronger effect = lower value
experimental-endpoint: viability, T/C (%)

INSERT INTO measurements (compound, value_reported) VALUES
  ('COc1cc(Nc2ncc3c(n2)-c2ccc(Cl)cc2C(c2c(F)cccc2OC)=NC3)ccc1C(=O)O + CC(CO)NC(=O)c1cc(-c2ccc(Cl)cc2)nn(-c2cnn(C)c2)c1=O', 74.5),
  ('CC1(C)CCC(CN2CCN(c3ccc(C(=O)NS(=O)(=O)c4ccc(NCC5CCOCC5)c([N+](=O)[O-])c4)c(Oc4cnc5[nH]ccc5c4)c3)CC2)=C(c2ccc(Cl)cc2)C1 + Cc1ccccc1N=Nc1ccc(NC(=O)c2ccnn2C)c(C)c1', 95.9),
  ('Nc1ccn(C2OC(CO)C(O)C2(F)F)c(=O)n1 (stereo not drawn) + Cc1ccccc1N=Nc1ccc(NC(=O)c2ccnn2C)c(C)c1', 52.1);

----------
System: 699152-130-R-J1-PDC complex spheroid growth
experiment-summary: Anticancer human tumor 699152-130-R-J1-PDC cell line growth inhibition [AhR]; active = viability on the fitted dose curve at most 10% of control; inactive = the rest;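 also: compound exposure lasted 7 days after spheroids had grown for 3 days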
experimental-setup: second compound 10 µM; first compound 3.16 µM
Classes used: Yes (active), No (inactive)

INSERT INTO measurements (compound, assigned_category) VALUES
  ('NS(=O)(=O)OCC1CC(n2ccc3c(NC4CCc5ccccc54)ncnc32)CC1O (configuration not stated) + Cc1ccccc1N=Nc1ccc(NC(=O)c2ccnn2C)c(C)c1', 'No'),
  ('NS(=O)(=O)OCC1CC(n2ccc3c(NC4CCc5ccccc54)ncnc32)CC1O (configuration not stated) + Cc1cncc(-c2nc(NCCc3c[nH]c4ccccc34)c3ncn(C(C)C)c3n2)c1', 'Yes'),
  ('Nc1ccn(C2OC(CO)C(O)C2(F)F)c(=O)n1 (configuration not stated) + Cc1cncc(-c2nc(NCCc3c[nH]c4ccccc34)c3ncn(C(C)C)c3n2)c1', 'No'),
  ('O=C(c1cc(Cc2n[nH]c(=O)c3ccccc23)ccc1F)N1CCN(C(=O)C2CC2)CC1 + Cc1cncc(-c2nc(NCCc3c[nH]c4ccccc34)c3ncn(C(C)C)c3n2)c1', 'No'),
  ('COc1ccc([C@@H](O)c2cc(-c3ncnc4cc(N5CCOCC5)ccc34)c(F)cc2Cl)nn1 + CC(CO)NC(=O)c1cc(-c2ccc(Cl)cc2)nn(-c2cnn(C)c2)c1=O', 'No'),
  ('CC1COCCN1c1cc(C2(S(C)(=N)=O)CC2)nc(-c2ccnc3[nH]ccc23)n1 (configuration not stated) + CC(CO)NC(=O)c1cc(-c2ccc(Cl)cc2)nn(-c2cnn(C)c2)c1=O', 'No'),
  ('CC1(C)CCC(CN2CCN(c3ccc(C(=O)NS(=O)(=O)c4ccc(NCC5CCOCC5)c([N+](=O)[O-])c4)c(Oc4cnc5[nH]ccc5c4)c3)CC2)=C(c2ccc(Cl)cc2)C1 + Cc1cncc(-c2nc(NCCc3c[nH]c4ccccc34)c3ncn(C(C)C)c3n2)c1', 'No');

These measurements were taken from PubChem BioAssay AID1919001.
